experimentalProtocol: protein stability index of a GFP-peptide fusion (GPS, HEK-293T) (PSI 1-6); higher = more stable;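 further: 24-mer peptide tiles fused after GFP, lentivirally expressed, FACS-sorted into six equal bins by GFP/DsRed ratio, decoded by Illumina sequencing, PSI is the read-weighted mean bin number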
measurementParameters: treatment: DMSO; c terminus: a fixed tail appended
Reported protein stability index values are given for each entry in this list.
Just the number, please, no unit after it.

Example cases with answers are listed next.
EAWRLVEEGIVSPSDLDLVMSEGL [CRYL1] | 3.91
MPTGPPEDRLSLKFLPSSEEDNDD [DRICH1] | 5.47
TKAGHSLELIEPLIKFQVGLKKLN [VDR] | 2.19
SDGRTFLSRCEFQRAKCKDPQLEI [SMOC2] | 2.95
VDDLSVEWDAMGGKVQDIKAREKD [FSD1] | 5.41
TDRRSFHEVREFKQLIYRVRRTDD [RIT1] | 3.03
LSVEADINGLRRVLDELTLARADL [KRT17] | 2.66
SWFDNGSICMRMEILGCPLPDPNN [CPXM2] | 2.09

Look at this sequence and give its reported protein stability index. VYLSPRDDGYSTKDSYSSRDYPSS [RBMX] 3.21

State the recorded protein stability index for this entry: SLSKKYRQDAKYLNMRSTYAKLAA [SEC22B] 2.56

###

experimentalProtocol: protein stability index of a GFP-peptide fusion (GPS, HEK-293T) (PSI 1-6); higher = more stable
measurementParameters: treatment: DMSO; c terminus: a fixed tail appended
Short version: protein stability index at least 4 is 1 (yes), less is 0 (no).

Answered examples (3):
ECQLYPRRSQQQQVPVVDFQAELR [SNURF] | 1 (yes)
EKKDLKLEPPEEEIIEGNTKSHIM [NECAB1] | 1 (yes)
SPEVLTPQLSPGSGTPQAGTPSPS [RTN2] | 1 (yes)

Decide: is the reported value of protein stability index for HKYNTTSTSYSPLASLPLKADTKG [PLAGL1] equal to or greater than 4? 1 (yes)

Hello, I need to know if KLMKEILDKKVEKVTISNRLVSSP [HSP90AB1] has measured protein stability index not below 4. Thanks! 0 (no)

In plain terms: is recorded protein stability index at least 4 for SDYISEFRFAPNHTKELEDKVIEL [EPB41L3] ? 0 (no)

Tell me whether protein stability index is at least 4 here: QIMKEGKATASEAVDCKWYIRAPP [NETO1] 0 (no)

# check: protein stability index of GYWRVRLWNGDKYAATTTPFTPLH [TRIM39] is greater than or equal to 4 0 (no)

Is protein stability index for PNLTYVYPHTRIQSLVSILRTTVH [CLCN6] at or above 4? 0 (no)

###

experimentalProtocol: protein stability index of a GFP-peptide fusion (GPS, HEK-293T) (PSI 1-6); higher = more stable
measurementParameters: treatment: MLN4924 1 uM, 8 h; c terminus: a fixed tail appended
Entries and their protein stability index values follow.
Write the number on its own, no unit after it.

CGKSFTQSSGLIRHQRIHTGERPY [ZSCAN9] | 2.25
KFSNIVDKFVIVDCRYPYEYEGGH [CDC25B] | 2.25
VKYPELVLEHSLDREEEAIHHLVL [PCDHGA10] | 2.63
SPTSGSPRGSHSSALERLETKLHL [LURAP1L] | 3.94

Shifting focus to the sequence that follows.
# query: protein stability index of entry FIEGYCTPEEVIWEALNMMGLYDG [MAGEA10] 2.17

###

experimentalProtocol: protein stability index of a GFP-peptide fusion (GPS, HEK-293T) (PSI 1-6); higher = more stable
measurementParameters: treatment: MLN4924 1 uM, 8 h; c terminus: a fixed tail appended
Recorded protein stability index values for a group of sequences are listed next.
Give the figure only, with no unit attached.

Here are 10 sequences together with their reported answers.
GELLGEARYYLVQGLIEDCQLALQ [KCTD13] | 2.3
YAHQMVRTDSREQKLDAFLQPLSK [MLH1] | 3.35
AQDLTEAEGWHFFCFQGEATRKLA [SAT2] | 3.32
EQLSVLASCLQELFKAHFRGEVLP [INTS3] | 2.5
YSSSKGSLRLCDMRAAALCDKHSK [PPP2R2C] | 3.11
LAEIRCDLERQNQEYQVLLDVRAR [KRT34] | 3.59
LSAALASSQKQHSFTSSDKTIKSF [C8orf76] | 3.74
HVNFSHLTTKDYMEMYNVIMTVKE [SLC6A17] | 2.44
ELNAIMNKNSTDVKGCSMYVALFP [DCTD] | 2.35
VLLGWTLHYFPFFLMGRVLYFHHY [POMT2] | 2.91

Fill blank: measured protein stability index of the sequence QGPQGREGLAFLVSCPEGRADCAS [PWWP2B] is ____. 3.95

Give its protein stability index value. Item: TMRYINGLDPEPLPLMDLCRRSIR [SPSB4] 3.42

Give the measured protein stability index of IHFIAVAVCLLGVGTMVGADILAG [SLC35F2] . 3.31

###

experimentalProtocol: protein stability index of a GFP-peptide fusion (GPS, HEK-293T) (PSI 1-6); higher = more stable
measurementParameters: treatment: MLN4924 1 uM, 8 h; c terminus: a fixed tail appended
testReadout: protein stability index
Output spec: single numeric token, no unit.

VNYTQGLWEKVMPSRYAAIYNGGV [SLC19A2] | 2.21
IFRDNQWVGFDDVESFKTKVSYLK [CHIT1] | 2.81
GIKTVIVNMVDVAKALNRPPTYPT [EIF5] | 2.4
SDPARYEFLWGPRAHAEIRKMSLL [MAGEA10] | 2.49
SYDVALHRTRLQDLRVLVSNASED [SCARA5] | 3.93

Quick check: protein stability index of LAREGVAAFYKGYVPNMLGIIPYA [SLC25A25] ? 2.38

Quick one: protein stability index of IASIGRHRYIAYMANQEAAIQAFL [IQUB] ? 2.17

Which measured protein stability index value corresponds to SGNMLGRHFFTSWASCLQYDFDTQ [WDFY1] ? 2.11

Item RNIHRHVILSEIKEAVAALPPDVT [TCF25] has what recorded protein stability index? 3.62

Suppose we examine the sequence EATSHYIIELLASDAGSPSLHKHL [PCDHGC5] ; what protein stability index value has been reported? 2.12

###

experimentalProtocol: protein stability index of a GFP-peptide fusion (GPS, HEK-293T) (PSI 1-6); higher = more stable
measurementParameters: treatment: MLN4924 1 uM, 8 h; c terminus: a fixed tail appended
Rule: T for protein stability index not less than 3, F for anything less.

Look over these answered cases.
EGAVKMGMPSSLAHRIAAQTLLGT [PYCR3] | T
IARVADGLPLAASMQEDEQSGRDL [SEC22B] | T
APSLRRHVLIHNTLQQLQAALRLA [SERTAD3] | F
ELEKIGSGEFGSVFKCVKRLDGCI [WEE1] | F
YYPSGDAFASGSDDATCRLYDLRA [GNB5] | T

Kindly determine if protein stability index recorded for PGARTRAGAARVARWRRLRLQQLR [FBXO33] is above or exactly 3. T

Please check the record DGKLRLLTKLLASKSKEEVSSLIS [FEM1C] and state if its protein stability index is at or above 3. F

Could you please find out whether LKKDKKKEEKEDEISLEDLIERER [ZC3H15] has protein stability index that meets 3 or exceeds it? T

Could you please find out whether LLLILVSYVHILSAILQFPSTLGR [OR10K2] has protein stability index that meets 3 or exceeds it? T

Has ATLFFNPQESAILQLFHQDGTFSP [CLCN6] a recorded protein stability index greater than or equal to 3? F

Textbook exercise: given the entry YSCACLASGSVLRLVDAVLGAEIR [HDAC6] , state whether its protein stability index is greater than or equal to 3. F

Can PGPKGDPGEKSHWGEGLHQLREAL [EMID1] be said to have protein stability index at or above 3? T

Given the entry PYGPPPDAVQTSLMDEGASSEKKR [RBBP5] , answer whether its protein stability index meets or surpasses 3. T

###

Each item that follows carries a reported protein stability index.
experimentalProtocol: protein stability index of a GFP-peptide fusion (GPS, HEK-293T) (PSI 1-6); higher = more stable
measurementParameters: treatment: DMSO; c terminus: a fixed tail appended
Just the number, please.

Below, each entry is followed by its recorded protein stability index result.
GTLDNSKSMKPYNYCSAYESFYES [NEUROD6] | 3.02
PVDLWACGVILYILLVGYPPFWDE [CAMK2A] | 3.08
LSLTGVSLAGALGVKFVGLFIILQ [POMT2] | 3.05

// switching to the query sequence
I am curious: what protein stability index value has been reported for EELEFQYRRVNELLLSILNPTRQD [ZER1] ? 3.01

###

experimentalProtocol: protein stability index of a GFP-peptide fusion (GPS, HEK-293T) (PSI 1-6); higher = more stable
measurementParameters: treatment: DMSO; c terminus: a fixed tail appended
testReadout: protein stability index
Form rule: numeric answer, no unit written next to it.

LEVKIHDWYQKQTPTSPECDYSQY [KRT15] | 2.81
VGKGEILASLQDGAAESPYGHPAG [RAB40B] | 4.66
EAQTSGKERLLLSAAVPAGQTYVD [CHIT1] | 4.15
QGGELVVAYPYDLVRSPWKTQEHT [CPXM2] | 2.58
YPNYEFISDNSISWSAGLHNRYTE [FUT8] | 2.51

I have this sequence here, QYPNPLPVLSGAELEKAHLALIDY [VPS39] , and I need its recorded protein stability index. 3.55

So what does the record say about protein stability index for WTLQRRLTRLRTASGHEPGGSAVC [PLEKHN1] ? 3

GET /values?readout=protein stability index&item= GGGEGKAMYIDTEGTFRPERLLAV [RAD51] 2.69

What does the data say about its protein stability index? Entry: RSVDVVVSSVFLLTLSIAFICCAQ [PHTF1] 3.33
